ASSAYED SYSTEM: von Willebrand factor (VWF) (Homo sapiens, UniProt P04275 P04275:764-2813)
EXPERIMENTAL DETAILS: filter; NB; 2 mM CaCl2, 37 C
RECORDED CONDITIONS: tags: factor VIII free, Haematologic Technologies Inc; label: 5'-32P
REPORTED ENDPOINT: binding result

[[record]]
binder = "ACGAACUGCCCUUUAUACGCACAGACGU (ssRNA, 2'-F C and U; 2'-OH A and G; 3' idT) [T65]"
reported_endpoint = "binding result"
result = "no binding"

[[record]]
binder = "T19 (ssRNA, 2'-F C and U; 2'-OH A and G) RNA: GGGAGGUGGACGAACUGCCCUCUUUCAUGUUGCUGACGCACAGACGACUCGCUG"
reported_endpoint = "binding result"
result = "no binding"

[[record]]
binder = "T20 (ssRNA, 2'-F C and U; 2'-OH A and G) RNA: GGGAGGUGGACGAACUGCCCUCUACUUUCAUGUUGACGCACAGACGACUCGCUG"
reported_endpoint = "binding result"
result = "no binding"

[[record]]
binder = "ACGAACUGCCCUCGAUUAUUCGACCACAGACGU (ssRNA, 2'-F C and U; 2'-OH A and G; 3' idT) [T67]"
reported_endpoint = "binding result"
result = "no binding"

[[record]]
binder = "ACGAACUCCCUCGAUUAUUCGACGACAGACGU (ssRNA, 2'-F C and U; 2'-OH A and G; 3' idT) [T62]"
reported_endpoint = "binding result"
result = "no binding"


Using the record for GGGAGGUGGACGAACUGCCCUACGCACAGACGACUCGCUG (ssRNA, 2'-F C and U; 2'-OH A and G) [T17] , report its binding result.
no binding

Please do the same for ACGAACUGCCCUCAGCUACUUUCAUGUUGCUGACGCACAACGU (ssRNA, 2'-F C and U; 2'-OH A and G; 3' idT) [T53] as well.
no binding

Next up: ACGAACUGCUCGAUUAUUCGAGCACAGACGU (ssRNA, 2'-F C and U; 2'-OH A and G; 3' idT) [T66]
no binding

Likewise for ACGACUGCCCUCAGCUACUUUCAUGUUGCUGACGCACACGU (ssRNA, 2'-F C and U; 2'-OH A and G; 3' idT) [T55] ?
no binding

Next record, please: ACGAACUGCCCCGCACAGACGU (ssRNA, 2'-F C and U; 2'-OH A and G; 3' idT) [T61]
no binding

Please answer likewise for ACGAACUGCCCUACGCACAGACGU (ssRNA, 2'-F C and U; 2'-OH A and G; 3' idT) [T56]
no binding

Can you handle ACGAACUGCCCUCGCGACGCACAGACGU (ssRNA, 2'-F C and U; 2'-OH A and G; 3' idT) [T58] next?
no binding

Same lookup for ACGAACUGCCCUCAGCUACUUUCAUGUUGCUGACGCACGACGU (ssRNA, 2'-F C and U; 2'-OH A and G; 3' idT) [T54] , please.
no binding

Now consider T13 (ssRNA, 2'-F C and U; 2'-OH A and G) RNA: GGGAGGUGCCCUCAGCUACUUUCAUGUUGCUGACGCACAGACGACUCGCUG .
no binding

Do the same for GGGAGGUCAGCUACUUUCAUGUUGCUGA (ssRNA, 2'-F C and U; 2'-OH A and G) [T14] please
no binding
